- SYSTEM_TESTED: CSNK2A1 (human)
- METHOD_DESCRIPTION: radiometric filter-binding kinase assay
- DETAILS: compound 1.0 µM
For each entry below, report its residual activity value.
# number then unit; no other words

Ask: Look at this compound and give its reported residual activity. `COc1cc(O)c2c(c1)/C=C/C[C@H](O)[C@H](O)C(=O)/C=C\C[C@H](C)OC2=O`
Result: 77%

Ask: Which value of residual activity has been reported for `O=C(Nc1ccccc1-c1cn2c(CN3CCNCC3)csc2n1)c1cnc2ccccc2n1` in the records?
Result: 102%

Ask: GET /values?readout=residual activity&item= `Cc1ccc(=O)n(-c2ccccc2)c1`
Result: 98%

Ask: What value of residual activity has been reported for the following compound? `c1ccc2c(-c3cnn4cc(-c5ccc(N6CCNCC6)cc5)cnc34)ccnc2c1`
Result: 89%

Ask: Reported residual activity, compound `CCc1cncnc1N1CCN(Cc2nc3cc(C(F)(F)F)ccc3[nH]2)CC1` : ____
Result: 92%

Ask: Which value of residual activity has been reported for CNC(=O)C1[C@H]2O[C@@](C)([C@@H]1N)n1c3ccccc3c3c4c(c5c6ccccc6n2c5c31)C(=O)NC4 (stereo not given in full) in the records?
Result: 80%

Ask: Entry `CN1C(=O)[C@@H](Cc2c[nH]c3ccccc23)NC1=S` has what residual activity?
Result: 95%

Ask: Which measured residual activity value corresponds to `NC(=O)c1ccc(-c2ccc(Oc3cncc4sc(-c5nn[nH]n5)cc34)cc2)cc1` ?
Result: 30%

Ask: Requested field: residual activity. Item: `Oc1ccc(/C=C/c2cc(O)cc(O)c2)cc1`
Result: 101%

Ask: Given Nc1cccc2c1CN(C1CCC(=O)NC1=O)C2=O (stereo not given) , state its recorded residual activity.
Result: 106%

###

- SYSTEM_TESTED: PLK1 (human)
- METHOD_DESCRIPTION: radiometric filter-binding kinase assay
- DETAILS: compound 10.0 µM
For each of the molecules below, state its residual activity.
Give the value in % but do not write % after it.

Ask: # residual activity lookup, item `Cn1nc(Nc2ccc(F)cc2)c2c(N)ncnc21`
Result: 94

Ask: Reported residual activity, molecule `NC1(c2ccc(-c3nc4ccn5c(=O)[nH]nc5c4cc3-c3ccccc3)cc2)CCC1` : ____
Result: 94

Ask: What residual activity value was documented for this molecule, `O=C(O)c1cc(N=Nc2ccc(S(=O)(=O)Nc3ccccn3)cc2)ccc1O` ?
Result: 102

Ask: Find the recorded residual activity belonging to `CCCC(CCC)C(=O)O` and report it.
Result: 95

Ask: If you can, please state the reported residual activity value of `CCn1c(-c2nonc2N)nc2cncc(CNC3CCNCC3)c21` .
Result: 41

Ask: residual activity for `NC(=O)c1ccc(-c2ccc(Oc3cncc4sc(-c5nn[nH]n5)cc34)cc2)cc1` ?
Result: 24

Ask: Entry `CN1C(=O)[C@@H](Cc2c[nH]c3ccccc23)NC1=S` : reported residual activity = ?
Result: 88

Ask: Data request, read-out residual activity, for `NS(=O)(=O)OC[C@@H]1C[C@@H](n2ccc3c(N[C@H]4CCc5ccccc54)ncnc32)C[C@@H]1O`
Result: 95

Ask: Tell me the measured residual activity of `O=S(=O)(c1ccc(F)c2nonc12)N1CCN(c2ncc(C(F)(F)F)cc2Cl)CC1` , please.
Result: 99

Ask: Which residual activity reading was recorded for the molecule `CCc1cncnc1N1CCN(Cc2nc3cc(C(F)(F)F)ccc3[nH]2)CC1` ?
Result: 88

Ask: So what's the measured residual activity for this one? O=C1Nc2nc(-c3c(O)cccc3OCC3CC3)cc(C3CCCNC3)c2CO1 (stereo unspecified)
Result: 87

Ask: Could you tell me which residual activity is on file for `O=C1NC(=S)N[C@@H]1Cc1c[nH]c2ccccc12` ?
Result: 93

Ask: Which residual activity is listed for `Cc1nc(-c2ccc(OCC(C)C)c(C#N)c2)sc1C(=O)O` ?
Result: 91

Ask: // residual activity lookup, key: `Cc1ccc(=O)n(-c2ccccc2)c1`
Result: 82

Ask: Fill in the blank: the reported residual activity of `Cc1ccc(Sc2cnc(Nc3cccc(Br)n3)s2)cc1C(=O)N1CCN(C(=O)CN)CC1` is ____.
Result: 114

Ask: Find the recorded residual activity belonging to `Oc1ccc2ccccc2c1SSc1c(O)ccc2ccccc12` and report it.
Result: 9

Ask: // returns reported residual activity for input `CCOC(=O)c1ccc(N2NC(=O)/C(=C/c3ccc([N+](=O)[O-])o3)C2=O)cc1`
Result: 92

Ask: Can you share its residual activity? I mean this molecule: O=C(NOCC(O)CO)c1ccc(F)c(F)c1Nc1ccc(I)cc1Cl (stereo unspecified)
Result: 93

Ask: Quick one: residual activity for `Cc1cccc(Nc2nn(C)c3ncnc(N)c23)c1` ?
Result: 106

Ask: # residual activity lookup, item `NC(=O)Nc1ccc2c(c1)/C(=C/c1cc(-c3cccnc3)c[nH]1)C(=O)N2`
Result: 18

Ask: Look up residual activity: CC1=C(CO)C(=O)O[C@@H]([C@@H](C)[C@H]2CC[C@H]3[C@@H]4C[C@H]5O[C@]56[C@@H](O)C=CC(=O)[C@]6(C)C4CC[C@]23C)C1 (stereo partly specified)
Result: 118
